Data credit: PubChem BioAssay (NCI)

- protocolDescription: NCI Yeast Anticancer Drug Screen. Data for the rad14 strain (AID 159)
- conditionInfo: S. cerevisiae rad14 strain growth inhibition; at 33.0 µM
About 79,000 compounds went through this panel and 15% of them were active in at least one assay; those are over-represented in the sample as a whole. Activity calls are given as the source filed them. Rule as the data show it: active = growth inhibition above about 70%; inactive = the rest.
Classes used: active, inactive

>  <compound>
CCC(/C=C/c1ccccc1)=N\Nc1ccc(Cl)cc1

>  <classification>
inactive

$$$$
>  <compound>
O=C(O)/C=C\C(=O)Nc1ccc2c(c1)Cc1cc(Cl)ccc1-2

>  <classification>
inactive

$$$$
>  <compound>
CNC(=O)OCc1c(COC(=O)NC)c(C)n(-c2ccc(Br)cc2)c1C

>  <classification>
active

$$$$
>  <compound>
CCCC/C=C1\CCC(CN2CCCC2)C1=O (stereo unspecified)

>  <classification>
active

$$$$
>  <compound>
CC1=CC(=C(c2ccc(N)c(C)c2)c2ccc(N)c(C)c2)C=CC1=N

>  <classification>
inactive

$$$$
>  <compound>
O=C(NCCCCN1CC2CCCC2C1)C(C1CCCCC1)C1CCCCC1 (stereo unspecified)

>  <classification>
active

$$$$
